# tgt: binding of rHA2 or the gingipains (RgpA, Kgp) to hemin (Porphyromonas gingivalis, UniProt Q51816, A1188S/A1219P/Q1165E)
# assayComment: solution-phase competition assay, hemin-coated wells
# details: read-out: IC50, inhibition of binding to hemin
quantity: IC50

- molecule: "C=CC1=C(C)c2cc3[nH]c(cc4nc(cc5[nH]c(cc1n2)c(C)c5CCC(=O)O)C(CCC(=O)O)=C4C)c(C)c3C=C [protoporphyrin IX]"
  result: "~2.5 µM"
